Where do the numbers come from? From paper PMC9849758.

For each entry below, report its IC50 value.
target: β-tryptase (recombinant tryptase β-2) (Homo sapiens, UniProt P20231)
Construct: purchased EnzoLife Sciences
Sequence (P20231 31-275): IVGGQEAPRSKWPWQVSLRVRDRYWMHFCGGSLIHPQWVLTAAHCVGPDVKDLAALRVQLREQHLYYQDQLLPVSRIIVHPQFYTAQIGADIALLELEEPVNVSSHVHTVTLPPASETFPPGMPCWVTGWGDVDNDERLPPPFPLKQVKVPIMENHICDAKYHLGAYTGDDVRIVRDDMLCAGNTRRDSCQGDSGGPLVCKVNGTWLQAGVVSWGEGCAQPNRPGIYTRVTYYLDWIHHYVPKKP
run description: IC50 determination, spectrophotometric protease assay
Assay type: biochemical

# example entries with known answers
C#CCCCOC(=O)NC(Cc1ccc(N)cc1)P(=O)(Oc1ccc(NC(C)=O)cc1)Oc1ccc(NC(C)=O)cc1 (centres unmarked) [17b]    > 10 µM
C#CCCCOC(=O)NC(c1ccc(N)cc1)P(=O)(Oc1ccc(NC(C)=O)cc1)Oc1ccc(NC(C)=O)cc1 (centres unmarked) [20b]    > 10 µM

Give IC50 for each of the items listed below.
1. C#CCCCOC(=O)NC(CCCN)P(=O)(Oc1ccccc1)Oc1ccccc1.O=C(O)C(F)(F)F (centres unmarked) [14b]
2. C[C@@H]1NC(=O)N[C@@H]1CCCCCC(=O)NCCOCCOCCOCCn1cc(CCCOC(=O)NC(Cc2ccccc2)P(=O)(Oc2ccccc2)Oc2ccccc2)nn1 (some centres unmarked)
3. C#CCCCOC(=O)NC(C1CCNCC1)P(=O)(Oc1ccccc1)Oc1ccccc1 (centres unmarked) [23b]
4. C#CCCCOC(=O)NC(Cc1ccc(CNC(=N)N)cc1)P(=O)(Oc1ccccc1)Oc1ccccc1 (centres unmarked) [40b]
5. C#CCCCOC(=O)NC(Cc1ccc(CN)cc1)P(=O)(Oc1ccccc1)Oc1ccccc1 (centres unmarked) [22b]
6. C#CCCCOC(=O)NC(Cc1ccc(NC(=N)N)cc1)P(=O)(Oc1ccccc1)Oc1ccccc1 (centres unmarked) [34b]

> 10 µM
> 10 µM
> 10 µM
> 10 µM
> 10 µM
0.63 µM

Give IC50 for each of the items listed below.
1. C#CCCCOC(=O)NC(C(C)C)P(=O)(Oc1ccccc1)Oc1ccccc1 (centres unmarked)
2. C#CCCCOC(=O)NC(Cc1ccccc1)P(=O)(Oc1ccccc1)Oc1ccccc1 (centres unmarked)
3. CC(C)C(NC(=O)OCCCc1cn(CCOCCOCCOCCNC(=O)CCCCC[C@H]2NC(=O)N[C@H]2C)nn1)P(=O)(Oc1ccccc1)Oc1ccccc1 (some centres unmarked)
4. C#CCCCOC(=O)NC(C1CCN(C(=N)N)CC1)P(=O)(Oc1ccccc1)Oc1ccccc1 (centres unmarked) [41b]
5. C#CCCCOC(=O)NC(c1ccc(NC(=N)N)cc1)P(=O)(Oc1ccc(NC(C)=O)cc1)Oc1ccc(NC(C)=O)cc1 (centres unmarked) [38b]
6. C[C@@H]1NC(=O)N[C@@H]1CCCCCC(=O)NCCOCCOCCOCCn1cc(CCCOC(=O)NC(Cc2ccc(NC(=N)N)cc2)P(=O)(Oc2ccc(Cl)cc2)Oc2ccc(Cl)cc2)nn1 (some centres unmarked) [54b]
7. C#CCCCOC(=O)NC(Cc1ccc(N)cc1)P(=O)(Oc1ccc(Cl)cc1)Oc1ccc(Cl)cc1 (centres unmarked) [18b]
8. C#CCCCOC(=O)NC(Cc1ccc(NC(=N)N)cc1)P(=O)(Oc1ccc(NC(C)=O)cc1)Oc1ccc(NC(C)=O)cc1 (centres unmarked) [35b]

1. > 10 µM
2. > 10 µM
3. > 10 µM
4. 8.37 µM
5. 0.12 µM
6. 0.11 µM
7. > 10 µM
8. 0.05 µM

GET /value?item= C[C@@H]1NC(=O)N[C@@H]1CCCCCC(=O)NCCOCCOCCOCCn1cc(CCCOC(=O)NC(Cc2ccc(NC(=N)N)cc2)P(=O)(Oc2ccccc2)Oc2ccccc2)nn1 (some centres unmarked) [50b] &field=IC50 returns 0.36 µM
